target_entity: T1, AlkB (Escherichia coli, UniProt P05050 1-216)
T1 sequence: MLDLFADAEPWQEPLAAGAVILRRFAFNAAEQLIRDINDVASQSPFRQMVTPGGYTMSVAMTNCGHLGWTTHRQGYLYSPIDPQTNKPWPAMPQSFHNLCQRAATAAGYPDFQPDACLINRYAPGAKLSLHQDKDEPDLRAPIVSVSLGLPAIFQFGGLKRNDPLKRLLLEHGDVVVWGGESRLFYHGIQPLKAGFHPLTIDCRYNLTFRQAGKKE
assay_remarks: stopped-flow FRET, global fit (enzyme-product complex); Fe(II), aKG; after turnover; 50 mM HEPES-KOH pH 7.5, 50 mM KCl, 10 mM MgCl2, 40 uM Fe(II), 1 mM aKG, 2 mM ascorbate (composition as given for the anaerobic runs); stopped-flow at 37 C; titration temperature not given in the material
condition_set: protein: recombinant; tags: His6; label: 5'-FAM, 3'-BHQ1 on strand 1; blunt
measurement_type: pKd
Quick note: pKd means taking -log10 of the concentration in moles per liter.

Request: Supply recorded pKd for ds15A_FRET (demethylated product of ds15m1A_FRET) (dsDNA) DNA 1: ACAGGATCCGGCATA DNA 2: TATGCCGGATCCTGT here.
Response: 5.36
